Exercise: state measured pIC50 for each of the molecules provided.
Target: ELIC (Dickeya chrysanthemi, UniProt P0C7B7)
Construct: DNA encoding ELIC and a T7 promoter was inserted into the pCMV-mGFP Cterm S11 NeoKan (Theranostech) vector; expressed in transfected cells; host or cells: Xenopus laevis oocytes (cRNA injection)
Sequence (P0C7B7 whole entry): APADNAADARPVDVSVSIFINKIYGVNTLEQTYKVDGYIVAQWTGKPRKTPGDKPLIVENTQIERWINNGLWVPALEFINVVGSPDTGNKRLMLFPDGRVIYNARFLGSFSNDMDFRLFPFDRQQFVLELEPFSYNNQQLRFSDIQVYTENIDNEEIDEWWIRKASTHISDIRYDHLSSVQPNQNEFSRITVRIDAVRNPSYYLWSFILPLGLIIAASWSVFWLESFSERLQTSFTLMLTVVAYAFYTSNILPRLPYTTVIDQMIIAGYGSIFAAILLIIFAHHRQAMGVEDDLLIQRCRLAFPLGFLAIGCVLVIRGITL
Assay: Two-electrode voltage clamp inhibition of wild-type ELIC expressed in Xenopus laevis oocytes
Type: cell-based, Erwinia chrysanthemi
Conditions: WT ELIC; agonist propylamine (PPA) at EC20; oocytes; mean ± SEM, n ≥ 6; read-out: IC50 for ELIC
Note on units: pIC50 is unitless, being -log10 of a concentration expressed in mol/L.

Hello, I am looking for reported pIC50 with ELIC (Dickeya chrysanthemi, UniProt P0C7B7) for FC(F)OC(Cl)C(F)(F)F (stereo not shown) . Could you help? 4.66

Quick check: pIC50 on ELIC (Dickeya chrysanthemi, UniProt P0C7B7), item FC(F)(F)C(Cl)Br (stereo not shown) ? 4.40

Tell me reported pIC50 for FCOC(C(F)(F)F)C(F)(F)F , tested with ELIC (Dickeya chrysanthemi, UniProt P0C7B7). 4.63

Form: Entry = CC(C)c1cccc(C(C)C)c1O | System = ELIC (Dickeya chrysanthemi, UniProt P0C7B7) | pIC50 = ____ 4.92

The values you see were collected from paper PMC4561908.
